- procedure-details: Standard Rat Pharmacokinetics (PK)
- Format: in vivo
- run-conditions: plasma; rat, IV/PO 1.7/17 mg/kg; Dose(IV)*AUC(oral)/Dose(oral)*AUC(IV)
measured-quantity: bioavailability

INSERT INTO results (smiles_notation, result) VALUES
  ('CN1CCN(CCC(=O)NS(=O)(=O)c2ccc(Nc3nc(N)n(C(=O)c4c(F)cccc4F)n3)cc2)CC1', '0%');

* * *

- Tested on: HeLa cervical adenocarcinoma
- procedure-details: Inhibition of cell proliferation (14C-thymidine incorporation), HeLa
- Assay type: cell-based
- run-conditions: Homo sapiens
- Experimental: The ability of a test compound to inhibit the proliferation of cell growth was determined by measuring incorporation of ^14C-labelled thymidine into newly synthesized DNA within the cells. […] In this way the effect of a compound on cell growth of cells with many different phenotypes can be determined. […] 200 μl of PBS was added to each well. […] The degree of methyl ^14C-thymidine incorporation was quantified on a Packard Top Count.
Measured IC50 accompanies every entry in the list below.
measured-quantity: IC50 (µM)

INSERT INTO measurements (molecule, measured_quantity, measured_number) VALUES
  ('CCCC(=O)NS(=O)(=O)c1ccc(Nc2nc(N)n(C(=O)c3c(F)cccc3F)n2)cc1 [Compound 19]', 'IC50', 6.89),
  ('Nc1nc(Nc2ccc(S(=O)(=O)NC(=O)[C@@H](N)CC(=O)O)cc2)nn1C(=O)c1c(F)cccc1F [Compound 17]', 'IC50', 58.3),
  ('Nc1nc(Nc2ccc(S(=O)(=O)NC(=O)CCN3CCOCC3)cc2)nn1C(=O)c1c(F)cccc1F [Compound 7]', 'IC50', 20.9),
  ('CCOC(=O)CCC(=O)NS(=O)(=O)c1ccc(Nc2nc(N)n(C(=O)c3c(F)cccc3F)n2)cc1 [Compound 8]', 'IC50', 60.2);
